- target_entity: Estrogen receptor (Homo sapiens) (UniProt P03372)
- Sequence (P03372 whole entry, the tested form may be a part): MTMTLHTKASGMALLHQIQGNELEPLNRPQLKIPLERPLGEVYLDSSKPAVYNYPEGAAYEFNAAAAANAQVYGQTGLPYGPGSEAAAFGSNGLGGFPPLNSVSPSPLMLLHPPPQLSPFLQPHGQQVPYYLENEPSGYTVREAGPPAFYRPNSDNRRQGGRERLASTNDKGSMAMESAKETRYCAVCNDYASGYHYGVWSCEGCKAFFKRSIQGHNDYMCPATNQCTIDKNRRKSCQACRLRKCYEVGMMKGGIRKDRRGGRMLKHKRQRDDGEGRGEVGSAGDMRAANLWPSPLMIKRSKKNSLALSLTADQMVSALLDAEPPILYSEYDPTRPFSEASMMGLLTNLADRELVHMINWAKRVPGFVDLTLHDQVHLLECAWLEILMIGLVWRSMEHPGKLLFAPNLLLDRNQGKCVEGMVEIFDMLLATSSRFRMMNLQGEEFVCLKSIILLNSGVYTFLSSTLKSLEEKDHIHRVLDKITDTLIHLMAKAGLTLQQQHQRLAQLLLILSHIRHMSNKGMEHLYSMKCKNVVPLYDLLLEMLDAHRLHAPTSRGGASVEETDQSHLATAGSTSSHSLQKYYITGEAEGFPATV
- test_protocol: Displacement of [3H]-estradiol from human […] LBD expressed in Escherichia coli at 1 uM to 1 pM relative to estradiol

[
  {
    "structure_smiles_string": "C[C@]12CC[C@@H]3c4ccc(O)cc4CC[C@H]3[C@@H]1CC[C@@]2(O)/C=C/c1ccncc1",
    "RBA": 2.5
  },
  {
    "structure_smiles_string": "C[C@]12CC[C@@H]3c4ccc(O)cc4CC[C@H]3[C@@H]1CC[C@@]2(O)/C=C/c1cccs1",
    "RBA": 2.7
  },
  {
    "structure_smiles_string": "C[C@]12CC[C@@H]3c4ccc(O)cc4CC[C@H]3[C@@H]1CC[C@@]2(O)/C=C/c1cncnc1",
    "RBA": 0.8
  }
]
